Record form. Attribute: IC50. Fill in for each entry.
Tested Target: P2X7 receptor (Homo sapiens)
Method Summary: IL-1β release assay in differentiated THP-1 cells stimulated with BzATP (Example 9); % inhibition and IC50
Experimental Context: THP-1 cells differentiated with LPS and IFN-γ, 30 min pretreatment, BzATP 250 uM, IL-1β by ELISA

• CC(C)C(C(=O)Nc1cccc2c(=O)n(CCO)ccc12)c1ccc(Cl)cc1 (stereo not shown) = > 1000 nM

Would you mind listing IC50 for each of the following compounds?
1. COc1ccc(CC(=O)Nc2cccc3c(=O)n(CCO)ccc23)cc1Br
2. CC(C(=O)Nc1cccc2c(=O)n([C@H](C)C(N)=O)ccc12)c1cccc(C(F)(F)F)c1F (stereo partly shown)
3. CC(C(=O)Nc1cccc2c(=O)n(C(CO)CO)ccc12)c1ccc(Cl)cc1 (stereo not shown)

110 nM
9.15 nM
374 nM

---

Tested Target: P2X7 receptor (Homo sapiens)
Method Summary: IL-1β release assay in differentiated THP-1 cells stimulated with BzATP (Example 9); % inhibition and IC50
Experimental Context: THP-1 cells differentiated with LPS and IFN-γ, 30 min pretreatment, BzATP 250 uM, IL-1β by ELISA
Procedure: The cells are then pretreated for 30 minutes with the compound of interest at the appropriate concentration in RPMI media containing 100 IU/mL penicillin, 100 ug/mL streptomycin. […] 30 uL of cell supernatant is then collected and IL-1β levels determined via ELISA (R&D systems Cat. # HSLB50) according to manufacturer's recommendations using the Tecan Safire plate reader. Background adjusted IL-1β levels of drug treated and non-treated cells are used to calculate the percent inhibition. […]
Property Name: IC50

Would you mind listing IC50 for each of the following compounds?
1. C[C@@H](CO)n1ccc2c(NC(=O)Cc3cccc(C(F)(F)F)c3F)cccc2c1=O [Compound 325]
2. CC(C)[C@H](C(N)=O)n1ccc2c(NC(=O)[C@@H](C)c3ccc(Cl)cc3)cccc2c1=O [Compound 283]
3. C[C@@H](CO)n1ccc2c(NC(=O)Cc3ccc(F)c(C(F)(F)F)c3)cccc2c1=O [Compound 338]
4. C[C@@H](C(N)=O)n1ccc2c(NC(=O)Cc3ccc(Cl)c(Cl)c3)cccc2c1=O [Compound 236]
5. C[C@@H](C(N)=O)n1ccc2c(NC(=O)Cc3ccc(Cl)c(F)c3)cccc2c1=O [Compound 352]
6. C[C@@H](CO)n1ccc2c(NC(=O)Cc3ccc(Cl)cc3F)cccc2c1=O [Compound 328]
7. O=C(Cc1cccc(C(F)(F)F)c1F)Nc1c(NCCO)ccc2c(=O)n(CCO)ccc12 [Compound 385]
8. O=C(Cc1ccc(Cl)c(Cl)c1)Nc1c(Cl)ccc2c(=O)n(CCO)ccc12 [Compound 248]

["84.6 nM", "9.7 nM", "48.1 nM", "46.6 nM", "32.7 nM", "202 nM", "> 1000 nM", "> 1000 nM"]

---

Tested Target: P2X7 receptor (Homo sapiens, UniProt Q99572)
Sequence (Q99572 whole entry): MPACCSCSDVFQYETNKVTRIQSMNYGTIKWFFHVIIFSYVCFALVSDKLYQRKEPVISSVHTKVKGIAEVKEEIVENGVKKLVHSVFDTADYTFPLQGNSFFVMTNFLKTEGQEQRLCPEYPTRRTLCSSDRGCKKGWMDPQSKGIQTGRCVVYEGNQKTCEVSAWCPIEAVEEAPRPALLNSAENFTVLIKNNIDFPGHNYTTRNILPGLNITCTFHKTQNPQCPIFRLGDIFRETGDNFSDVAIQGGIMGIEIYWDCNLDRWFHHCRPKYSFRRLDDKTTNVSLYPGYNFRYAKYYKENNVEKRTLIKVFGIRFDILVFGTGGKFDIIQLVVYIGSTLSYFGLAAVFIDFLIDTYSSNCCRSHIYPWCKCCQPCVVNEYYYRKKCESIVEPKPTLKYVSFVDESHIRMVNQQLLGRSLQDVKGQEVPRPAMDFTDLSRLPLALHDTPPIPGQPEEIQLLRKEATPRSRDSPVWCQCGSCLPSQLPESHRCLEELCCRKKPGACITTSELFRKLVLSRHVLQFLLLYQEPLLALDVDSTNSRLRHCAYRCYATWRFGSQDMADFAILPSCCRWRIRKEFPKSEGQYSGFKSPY
Method Summary: IL-1β release assay in differentiated THP-1 cells stimulated with BzATP (Example 9); % inhibition and IC50
Experimental Context: THP-1 cells differentiated with LPS and IFN-γ, 30 min pretreatment, BzATP 250 uM, IL-1β by ELISA
Property Name: IC50 (µM)
Give bare numbers, in µM.

* C[C@H](C(N)=O)n1ccc2c(NC(=O)Cc3ccc(F)c(F)c3)cccc2c1=O | 0.0155
* C[C@H](C(=O)Nc1cccc2c(=O)n([C@H](C)C(=O)NC3CC3)ccc12)c1ccc(Cl)cc1 | 0.302
* CC(C(=O)Nc1cccc2c(=O)n([C@@H](C)C(N)=O)ccc12)c1cccc(C(F)(F)F)c1F (some centres unmarked) | 0.0369
* C[C@H](CO)n1ccc2c(NC(=O)Cc3ccc(Cl)c(Cl)c3)cccc2c1=O | 0.00101

Would you mind listing IC50 for each of the following compounds?
1. CC(C(=O)Nc1cccc2c(=O)n([C@H](C)C(N)=O)ccc12)c1ccc(Cl)c(C(F)(F)F)c1 (some centres unmarked)
2. O=C(Cc1ccc(Cl)cc1Cl)Nc1cccc2c(=O)n(C(CO)CO)ccc12

0.00319
0.228

State its IC50 on P2X7 receptor (Homo sapiens, UniProt Q99572): CC(C)(CO)n1ccc2c(NC(=O)Cc3ccc(F)c(C(F)(F)F)c3)cccc2c1=O
0.106

// data source = patent US7816371B2
